Assignment: determine reported Population Normal (%) for the given compounds.
tested on: U2OS; test: Multiplex assay against U2OS; assay type: toxicity, cell-based; details: human, 48 h, 1 µM, compound concentration 1 uM
Answers are plain numbers, in %.

Completed entries (count: 5):
{"columns": ["Compound", "Population Normal (%)"],
 "data": [
  ["O=C1COc2nccc(-c3ccccc3F)c2CN1Cc1cc(C(F)(F)F)cc(C(F)(F)F)c1", 96],
  ["Cl.Clc1cc2cc(c1)-c1cnn3ccc(nc13)NCCOCCO2", 100],
  ["Cc1noc(C)c1-c1cnc2c(-c3ccc(C(=O)O)cc3)cn([C@@H](C)c3ccccn3)c2c1 [PLX-51107]", 100],
  ["CC(C)C[C@H](NC(=O)c1cc2ccccc2s1)C(=O)N1CCN(C(=O)[C@H](CO)NS(=O)(=O)c2ccc(Cl)cc2Cl)CC1", 100],
  ["Br.CS(=O)(=O)Nc1c(O)ccc2c1CCCC2C1=NCCN1 (stereo not given)", 98]
]}

I have 2 compounds here; please give me Population Normal (%) for each one.
1. Cl.c1ccc2c(c1)CCC[C@H]2Nc1nc2ccccc2[nH]1
2. CCC(=O)OCC(=O)[C@@]1(OC(=O)CC)[C@@H](C)C[C@H]2[C@@H]3CCC4=CC(=O)C=C[C@]4(C)[C@@]3(Cl)[C@@H](O)C[C@@]21C [BECLOMETHASONE DIPROPIONATE]

a:
[100, 97]
